B1: Ankyrin-1, residues 1405 to 1484; numbered along this chain, P16157 (parent)
chain: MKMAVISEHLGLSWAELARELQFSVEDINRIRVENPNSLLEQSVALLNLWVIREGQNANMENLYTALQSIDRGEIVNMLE

Variants of: B1
Assay: abundance fitness (aPCA) (normalised: wild type 0, dead -1); higher = more abundant; growth selection in yeast, the domain comes from the species named
Settings: Homo sapiens
ASSAY_READOUT: abundance fitness
// no unit string in output, number only

Report abundance fitness, nothing else, for this variant: MKMAVISEHLGLSWAELARELQFSVEDINRIRVENPNSLLEQSVALLNLWAIREGQNANMENLYTALQSIDRGEIVNMLE [V51A]
-0.072

Report abundance fitness, nothing else, for this variant: MKMAVISEHLGLSWAELARELQFSVEDINRIRVENPNSLLEQSVALLNLWVIREGQNANMENLYTALQSIDRGEIVNMVE [L79V]
0.132

Report abundance fitness, nothing else, for this variant: MKMAVISEHLGLSWAELARELQFSVEDINRIRVENPNSLLEQSVALLNLWVIREGQIANMENLYTALQSIDRGEIVNMLE [N57I]
-0.636

Report abundance fitness, nothing else, for this variant: MKMAVISEHLGLSWAELARELQFSVEDINRIRVYNPNSLLEQSVALLNLWVIREGQNANMENLYTALQSIDRGEIVNMLE [E34Y]
-0.565

Report abundance fitness, nothing else, for this variant: MKMAVISEHLGLSWAELARELQFSVEDINRIRVENPNSLLEQSVALLNLWVIRRGQNANMENLYTALQSIDRGEIVNMLE [E54R]
-0.456

Report abundance fitness, nothing else, for this variant: MKMAVISEHLGLSWAELARELQFSVEDIMRIRVENPNSLLEQSVALLNLWVIREGQNANMENLYTALQSIDRGEIVNMLE [N29M]
-0.075

Report abundance fitness, nothing else, for this variant: MKMAVISEHLGLSWAELARELQFSVEDINRIRVENPNSLLERSVALLNLWVIREGQNANMENLYTALQSIDRGEIVNMLE [Q42R]
-0.152

Report abundance fitness, nothing else, for this variant: MKMAVISEHLGLSWAELARELQFSVEDINRIRVENPNSLLEQSVALLNLWVIREGQNANMENCYTALQSIDRGEIVNMLE [L63C]
-0.748

Report abundance fitness, nothing else, for this variant: MKMAVISEHLGLSWAELARELQFSVEDINRIRVENPNSLLEQSVALLNLWVIREGQNANMENLYTALQRIDRGEIVNMLE [S69R]
-0.006

Report abundance fitness, nothing else, for this variant: MKMAVISEHLGLSWAELARELQFSVEDINRIRVENPNSLLEFSVALLNLWVIREGQNANMENLYTALQSIDRGEIVNMLE [Q42F]
-0.899

Report abundance fitness, nothing else, for this variant: MKMAVISEHLGLSWAELARELQFSVEDINRIRVENPFSLLEQSVALLNLWVIREGQNANMENLYTALQSIDRGEIVNMLE [N37F]
-0.152

Report abundance fitness, nothing else, for this variant: MKMAVISEHLGLSWAELARELQFSVEDINRIGVENPNSLLEQSVALLNLWVIREGQNANMENLYTALQSIDRGEIVNMLE [R32G]
-0.212

Report abundance fitness, nothing else, for this variant: MKMAVISEHLGLSWAELARELQFSVEDINRIRVENPNSLLEQSVALLNLWVIREGQNANMENLYTALQSGDRGEIVNMLE [I70G]
-0.911

Report abundance fitness, nothing else, for this variant: MKMAVISEHLGLSWAELARELQFSVEDINRIRVENPNSLLEQSVALLNLWVIREGQNANMENLYTACQSIDRGEIVNMLE [L67C]
-0.743

Report abundance fitness, nothing else, for this variant: MKMAVISEHLGLSWAELARELQFSVEDINRIRVENPNSLLEQSVALLNLWVIREGINANMENLYTALQSIDRGEIVNMLE [Q56I]
0.097

Report abundance fitness, nothing else, for this variant: MKMAVISEHLGLSWAELARELQFSVEDINRIRVENPNSLLEQSVALLNLWVIYEGQNANMENLYTALQSIDRGEIVNMLE [R53Y]
-0.842

Report abundance fitness, nothing else, for this variant: MKMAVISEHLGLSWAELARELQFSVEDINRIRVENPNSLLEQSVALLNLWVIREGQKANMENLYTALQSIDRGEIVNMLE [N57K]
-0.117

Report abundance fitness, nothing else, for this variant: MKMAVISEHLGLSWAELARELQFSVEDINRARVENPNSLLEQSVALLNLWVIREGQNANMENLYTALQSIDRGEIVNMLE [I31A]
-0.855

Report abundance fitness, nothing else, for this variant: MKMAVISEHLGLSWAELARELQFSVEDINWIRVENPNSLLEQSVALLNLWVIREGQNANMENLYTALQSIDRGEIVNMLE [R30W]
-0.328

Report abundance fitness, nothing else, for this variant: MKMAVISEHLGLSWAELARELQFSVEDINRIRVENPNSLLEQSVALLNLWVIREGQNANMENLYTALQSIDRMEIVNMLE [G73M]
-0.396

Report abundance fitness, nothing else, for this variant: MKMAVISEHLGLSWAELARELQFSVEDINRIRVWNPNSLLEQSVALLNLWVIREGQNANMENLYTALQSIDRGEIVNMLE [E34W]
-0.559

Report abundance fitness, nothing else, for this variant: MKMAVISEHLGLSWAELARELQFSVEDINRIRVENPNSLLWQSVALLNLWVIREGQNANMENLYTALQSIDRGEIVNMLE [E41W]
-0.563
